target: human Claudin-6 (CLDN6) (human) (UniProt P56747); assay: flow cytometry, UMUC4 cells (positive cell line); 2nd Ab only 1,114.73
measure-name: flow cytometry signal at 1µg Ab/Sample
Format: numeric value only, no unit, no commentary.

Below: 2 binders and their reported flow cytometry signal at 1µg Ab/Sample.
AB3-7 (antibody, V domains shown, humanized; also called AB23; humanized AB3-7) VH: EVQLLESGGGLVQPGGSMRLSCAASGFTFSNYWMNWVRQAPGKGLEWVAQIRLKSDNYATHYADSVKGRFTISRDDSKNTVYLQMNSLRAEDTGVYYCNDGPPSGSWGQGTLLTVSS VL: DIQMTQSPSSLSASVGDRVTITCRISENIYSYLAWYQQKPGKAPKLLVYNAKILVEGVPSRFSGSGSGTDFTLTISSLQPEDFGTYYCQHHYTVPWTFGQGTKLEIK    27300
CLDN6 ADC: AB3-7 conjugated to MC-VC-PAB-DXD (antibody, V domains shown, antibody conjugated to MC-VC-PAB-DXD; attachment residues not stated) VH: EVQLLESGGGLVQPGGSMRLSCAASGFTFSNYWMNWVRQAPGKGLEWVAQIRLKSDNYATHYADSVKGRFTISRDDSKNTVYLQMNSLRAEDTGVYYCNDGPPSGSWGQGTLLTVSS VL: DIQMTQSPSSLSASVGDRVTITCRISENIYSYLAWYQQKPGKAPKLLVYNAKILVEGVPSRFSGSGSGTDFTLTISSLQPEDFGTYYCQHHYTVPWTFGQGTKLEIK    32600

Next item in the queue.
query: Give its flow cytometry signal at 1µg Ab/Sample value. Item: CLDN6 ADC: AB3-7 conjugated to MC-GGFG-DXD (antibody, V domains shown, antibody conjugated to MC-GGFG-DXD; attachment residues not stated) VH: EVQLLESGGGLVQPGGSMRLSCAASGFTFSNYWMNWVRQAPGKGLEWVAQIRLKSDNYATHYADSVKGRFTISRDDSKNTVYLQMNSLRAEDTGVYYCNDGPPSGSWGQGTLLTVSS VL: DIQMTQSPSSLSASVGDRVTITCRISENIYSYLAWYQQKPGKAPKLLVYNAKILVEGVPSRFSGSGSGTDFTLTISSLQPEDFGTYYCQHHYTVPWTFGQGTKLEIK
result: 32800
